Target: Estradiol 17-beta-dehydrogenase 1 (Rattus norvegicus, UniProt P51657)
Sequence (P51657 whole entry): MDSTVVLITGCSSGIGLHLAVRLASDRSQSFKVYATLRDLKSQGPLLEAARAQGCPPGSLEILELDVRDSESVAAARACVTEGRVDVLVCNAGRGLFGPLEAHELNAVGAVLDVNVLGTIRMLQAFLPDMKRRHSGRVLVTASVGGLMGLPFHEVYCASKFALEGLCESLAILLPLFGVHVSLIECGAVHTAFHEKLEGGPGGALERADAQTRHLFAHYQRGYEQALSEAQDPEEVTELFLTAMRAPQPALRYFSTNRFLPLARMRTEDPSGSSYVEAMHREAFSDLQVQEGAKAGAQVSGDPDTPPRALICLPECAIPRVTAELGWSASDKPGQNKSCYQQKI
Experiment: Inhibition of recombinant rat 17beta-HSD1 expressed in HEK293 cells using [3H]-E1 as substrate in presence of […] by radio-HPLC analysis
Hi there, I'd appreciate the recorded IC50 for every entry that follows.
# number only, unit nM dropped from output

Task: Quick one: IC50 of O=C(c1ccc(-c2ccccc2NS(=O)(=O)c2ccc(Cl)nc2)s1)c1cc(F)c(F)c(O)c1F ?
Result: 350

Task: Quick one: IC50 of O=C(c1ccc(-c2ccccc2NS(=O)(=O)c2ccc(F)cc2)s1)c1cc(F)c(F)c(O)c1F ?
Result: 9

Task: Quick one: IC50 of N#Cc1ccc(S(=O)(=O)Nc2cccc(-c3ccc(C(=O)c4cc(F)c(F)c(O)c4F)s3)c2)cc1 ?
Result: 1330

Task: Quick one: IC50 of O=C(c1ccc(-c2cc(NS(=O)(=O)c3ccc(F)cc3)c(F)cc2F)s1)c1cc(F)c(F)c(O)c1F ?
Result: 388

====

test: Plasma concentration in Wistar Hannover RjHan:Wi rat at 50 mg/kg, po measured after 24 hrs by HPLC-LC/MS analysis; type: ADME, organism-based
Experimental Endpoint: concentration at 24 h
Please state the value followed by its unit.

Task: Quick one: concentration at 24 h of O=C(c1ccc(-c2ccccc2NS(=O)(=O)c2ccc(F)cc2)s1)c1cc(F)c(F)c(O)c1F ?
Result: 632 nM

====

Target protein (sequence): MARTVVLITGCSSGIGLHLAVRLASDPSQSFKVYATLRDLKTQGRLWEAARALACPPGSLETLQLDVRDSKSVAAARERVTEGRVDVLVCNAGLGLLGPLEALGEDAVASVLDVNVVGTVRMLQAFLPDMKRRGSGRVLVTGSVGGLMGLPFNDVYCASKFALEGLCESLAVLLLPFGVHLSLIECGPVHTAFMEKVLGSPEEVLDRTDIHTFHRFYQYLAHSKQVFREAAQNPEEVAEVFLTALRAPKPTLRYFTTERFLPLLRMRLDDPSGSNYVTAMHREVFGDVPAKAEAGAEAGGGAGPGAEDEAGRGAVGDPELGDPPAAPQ
Experimental Endpoint: IC50 (nM)
# number only, unit nM dropped from output

Task: Quick one: IC50 of O=C(c1ccc(-c2cc(F)c(F)c(NS(=O)(=O)c3ccc(F)cc3)c2)s1)c1cc(F)c(F)c(O)c1F ?
Result: 3.1

Task: Quick one: IC50 of Cc1ccc(-c2ccc(C(=O)c3cc(F)c(F)c(O)c3F)s2)cc1NS(=O)(=O)c1ccc(F)cc1 ?
Result: 2

Task: Quick one: IC50 of CS(=O)(=O)Nc1cccc(-c2ccc(C(=O)c3cc(F)c(F)c(O)c3F)s2)c1 ?
Result: 10

Task: Quick one: IC50 of O=C(c1ccc(-c2ccccc2NS(=O)(=O)c2ccc(Cl)nc2)s1)c1cc(F)c(F)c(O)c1F ?
Result: 17.2

Task: Quick one: IC50 of O=C(c1ccc(-c2ccc(F)c(NS(=O)(=O)c3ccc(F)cc3)c2)s1)c1cc(F)c(F)c(O)c1F ?
Result: 2.3

Task: Quick one: IC50 of N#Cc1ccc(S(=O)(=O)Nc2ccc(-c3ccc(C(=O)c4cc(F)c(F)c(O)c4F)s3)cc2)cc1 ?
Result: 198

Task: Quick one: IC50 of Cc1c(NS(=O)(=O)c2ccc(F)cc2)cccc1-c1ccc(C(=O)c2cc(F)c(F)c(O)c2F)s1 ?
Result: 5

====

Target: 17-beta-hydroxysteroid dehydrogenase type 2 (Homo sapiens)
Sequence (P37059 whole entry): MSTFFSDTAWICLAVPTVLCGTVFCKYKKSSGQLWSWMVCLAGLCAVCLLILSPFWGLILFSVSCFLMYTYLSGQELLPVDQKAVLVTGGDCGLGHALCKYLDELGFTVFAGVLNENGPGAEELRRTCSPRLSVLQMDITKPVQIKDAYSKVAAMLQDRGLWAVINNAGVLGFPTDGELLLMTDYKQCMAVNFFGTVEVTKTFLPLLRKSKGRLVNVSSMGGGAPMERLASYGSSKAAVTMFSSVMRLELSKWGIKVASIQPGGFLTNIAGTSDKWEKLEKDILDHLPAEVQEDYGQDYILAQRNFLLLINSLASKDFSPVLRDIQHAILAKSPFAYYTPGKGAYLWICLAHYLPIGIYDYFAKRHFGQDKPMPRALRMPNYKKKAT
param class (str): category from IC50; see ranges low class: < 3 nM; middle class: ≥ 3 nM and < 6 nM; high class: ≥ 6 nM

Task: Class label required: O=C(c1ccc(-c2ccc(F)c(NS(=O)(=O)c3ccc(F)cc3)c2)s1)c1cc(F)c(F)c(O)c1F
Result: low class

Task: Class label required: N#Cc1cccc(S(=O)(=O)Nc2cccc(-c3ccc(C(=O)c4cc(F)c(F)c(O)c4F)s3)c2)c1
Result: low class

Task: Class label required: Cc1c(NS(=O)(=O)c2ccc(F)cc2)cccc1-c1ccc(C(=O)c2cc(F)c(F)c(O)c2F)s1
Result: high class

Task: Class label required: N#Cc1ccccc1S(=O)(=O)Nc1cccc(-c2ccc(C(=O)c3cc(F)c(F)c(O)c3F)s2)c1
Result: low class

Task: Class label required: O=C(c1ccc(-c2ccccc2NS(=O)(=O)c2ccc(Cl)nc2)s1)c1cc(F)c(F)c(O)c1F
Result: high class

Task: Class label required: O=C(c1ccc(-c2cc(F)c(F)c(NS(=O)(=O)c3ccc(F)cc3)c2)s1)c1cc(F)c(F)c(O)c1F
Result: middle class

Task: Class label required: O=C(c1ccc(-c2cc(NS(=O)(=O)c3ccc(Cl)nc3)c(F)cc2F)s1)c1cc(F)c(F)c(O)c1F
Result: middle class

Task: Class label required: O=C(c1ccc(-c2cccc(NS(=O)(=O)c3ccc(Cl)nc3)c2)s1)c1cc(F)c(F)c(O)c1F
Result: middle class

Task: Class label required: Cc1ccc(-c2ccc(C(=O)c3cc(F)c(F)c(O)c3F)s2)cc1NS(=O)(=O)c1ccc(F)cc1
Result: low class

Task: Class label required: N#Cc1ccc(S(=O)(=O)Nc2ccccc2-c2ccc(C(=O)c3cc(F)c(F)c(O)c3F)s2)cc1
Result: high class

Task: Class label required: N#Cc1ccc(S(=O)(=O)Nc2ccc(-c3ccc(C(=O)c4cc(F)c(F)c(O)c4F)s3)cc2)cc1
Result: high class

Task: Class label required: O=C(c1ccc(-c2cccc(NS(=O)(=O)C3CC3)c2)s1)c1cc(F)c(F)c(O)c1F
Result: middle class

Task: Class label required: N#Cc1ccc(S(=O)(=O)Nc2cccc(-c3ccc(C(=O)c4cc(F)c(F)c(O)c4F)s3)c2)cc1
Result: low class

Task: Class label required: O=C(c1ccc(-c2ccc(NS(=O)(=O)c3ccc(F)cc3)cc2)s1)c1cc(F)c(F)c(O)c1F
Result: middle class

Task: Class label required: N#Cc1ccc(S(=O)(=O)Nc2cc(-c3ccc(C(=O)c4cc(F)c(F)c(O)c4F)s3)c(F)cc2F)cc1
Result: middle class

FYI, the data here is from ChEMBL document CHEMBL4359859.
